The origin of these recorded values is patent US8217140B2.

A collection of molecules and their measured ka
Target: human serum albumin (Homo sapiens, UniProt P02768)
Assay: Surface plasmon resonance (BIAcore 3000) of MycHis tagged 2D3-Expedite fusions, Example 10
Format: binding
Settings: Human serum albumin; chip ~3000 RU

# count of solved cases: 3
- Molecule: "2D3-9GS-56E4-MycHis: SEQ ID NO: 158 (protein, Myc-His tag) EVQLVESGGSLVQPGGSLRLSCAASGFTFDDYAMSWVRQVPGKGLEWVSSINWSGTHTDYADSVKGRFTISRNNANNTLYLQMNSLKSEDTAVYYCAKNWRDAGTTWFEKSGSAGQGTQVTVSSGGGGSGGGSAAARYWDYDVFGGGTPVGGAAAEQKLISEEDLNGAAHHHHHH"
  ka: "5.02E+03 1/ms"
- Molecule: "2D3-9GS-59H12-MycHis: SEQ ID NO: 161 (protein, Myc-His tag) EVQLVESGGSLVQPGGSLRLSCAASGFTFDDYAMSWVRQVPGKGLEWVSSINWSGTHTDYADSVKGRFTISRNNANNTLYLQMNSLKSEDTAVYYCAKNWRDAGTTWFEKSGSAGQGTQVTVSSGGGGSGGGSAAARSWDFDVFGGGTPVGGAAAEQKLISEEDLNGAAHHHHHH"
  ka: "4.59E+03 1/ms"
- Molecule: "2D3-9GS-59F2-MycHis: SEQ ID NO: 159 (protein, Myc-His tag) EVQLVESGGSLVQPGGSLRLSCAASGFTFDDYAMSWVRQVPGKGLEWVSSINWSGTHTDYADSVKGRFTISRNNANNTLYLQMNSLKSEDTAVYYCAKNWRDAGTTWFEKSGSAGQGTQVTVSSGGGGSGGGSAAARYWDFDVFGGGTPVGGAAAEQKLISEEDLNGAAHHHHHH"
  ka: "6.14E+03 1/ms"

Attention now turns to another entry.
IN: Answer with the recorded ka of 2D3-9GS-59C2-MycHis: SEQ ID NO: 160 (protein, Myc-His tag) EVQLVESGGSLVQPGGSLRLSCAASGFTFDDYAMSWVRQVPGKGLEWVSSINWSGTHTDYADSVKGRFTISRNNANNTLYLQMNSLKSEDTAVYYCAKNWRDAGTTWFEKSGSAGQGTQVTVSSGGGGSGGGSAAARDWDFDVFGGGTPVGGAAAEQKLISEEDLNGAAHHHHHH only.
OUT: 3.73E+03 1/ms
